test: Mouse PK, brain exposure after p.o. dosing; type: in vivo, Male CD-1 mice; conditions: mouse, po; brain exposure, p.o. 10 mg/kg, male CD-1 mice
measurement name: Cmax
Answer by giving the amount and then stating its unit.

compound	endpoint result
CN(C)CCNC(=O)c1ccc(-c2ccc(-c3ccc(Cl)cc3)n2-c2ccccc2C(F)(F)F)nc1 (single isomer, unassigned) [Atropisomer A-3]	604 ng/mL

Now turn to the next compound.
What Cmax value was documented for this compound, CN(C)CCNC(=O)c1ccc(-c2ccc(-c3ccc(Cl)cc3)n2-c2ccccc2C(F)(F)F)cc1 (single isomer, unassigned) [Atropisomer A-2] ? 693 ng/mL

###

system: panel of 48 cancer-derived cell lines; assay: Proliferation assay on diverse cancer cell line panel, CellTiter-Glo, 72 hours; type: cell-based; conditions: ML-2, Blood/Leukaemia, 72 hours; listed as A-1
measurement name: IC50 (µM)
Field format: number, assumed µM, no unit text.

Which IC50 is reported for this compound? CN(C)CCNC(=O)c1ccc(-c2ccc(-c3ccc(Cl)cc3)n2-c2ccccc2C(F)(F)F)cc1 (single isomer, unassigned) [Atropisomer A-1] 4.01
